assay: 7-day pilot intranasal toxicity and toxicokinetic study in rats; settings: male, rat, plasma, inhaled or intranasal, 10.8 mg/day, AUC0-t, Male, Day 7, 10.8 mg/day (6%), intranasal TID
OBSERVATION_TYPE: AUC(0-t) (ng·h/mL)

[[record]]
chemical_structure = "C(=C\\[C@H]1CCNC1)/c1cncnc1"
readout_unit = "ng·h/mL"
value = 878


###

biological target: a3b2 (Homo sapiens, UniProt P17787+P32297); assay: Receptor function a3b2, Ca++ flux; conditions: Human a3b2, Ca++ Flux
Sequence (P32297 32-505, one chain of several): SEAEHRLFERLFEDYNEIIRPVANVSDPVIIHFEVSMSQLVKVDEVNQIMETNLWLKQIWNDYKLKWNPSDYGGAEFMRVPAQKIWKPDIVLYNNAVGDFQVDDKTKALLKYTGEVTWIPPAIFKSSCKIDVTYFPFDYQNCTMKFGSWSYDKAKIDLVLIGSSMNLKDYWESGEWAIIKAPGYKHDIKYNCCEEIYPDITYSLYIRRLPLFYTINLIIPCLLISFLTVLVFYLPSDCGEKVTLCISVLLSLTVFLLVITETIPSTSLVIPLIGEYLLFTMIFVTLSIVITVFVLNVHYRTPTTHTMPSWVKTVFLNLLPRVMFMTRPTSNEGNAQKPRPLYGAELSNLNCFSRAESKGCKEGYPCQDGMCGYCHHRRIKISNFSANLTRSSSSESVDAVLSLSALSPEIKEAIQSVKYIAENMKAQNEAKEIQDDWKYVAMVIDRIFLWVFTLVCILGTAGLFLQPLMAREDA
pEC50: −log10 of the molar value.
OBSERVATION_TYPE: pEC50

[[record]]
chemical_structure = "C(=C\\[C@H]1CCNC1)/c1cncnc1"
value = 5.06


###

test: 7-day pilot intranasal toxicity and toxicokinetic study in rats; details: male, rat, plasma, inhaled or intranasal, 0.9 mg/day, Tmax, Male, Day 1, 0.9 mg/day (0.5%), intranasal TID
OBSERVATION_TYPE: Tmax (h)

[[record]]
compound = "C(=C\\[C@H]1CCNC1)/c1cncnc1 [Compound 1]"
value = 12.1


###

experiment: 7-day pilot intranasal toxicity and toxicokinetic study in rats; settings: female, rat, plasma, inhaled or intranasal, 10.8 mg/day, AUC0-t, Female, Day 7, 10.8 mg/day (6%), intranasal TID
OBSERVATION_TYPE: AUC(0-t)

[[record]]
compound = "C(=C\\[C@H]1CCNC1)/c1cncnc1 [Compound 1]"
observation_type = "AUC(0-t)"
value = "1480 ng·h/mL"


###

test: 7-day pilot intranasal toxicity and toxicokinetic study in rats; conditions: female, rat, plasma, inhaled or intranasal, 3.6 mg/day, Tmax, Female, Day 7, 3.6 mg/day (2%), intranasal TID
OBSERVATION_TYPE: Tmax (h)

[[record]]
compound = "C(=C\\[C@H]1CCNC1)/c1cncnc1 [Compound 1]"
observation_type = "Tmax"
value = 6.08


###

test: plasma protein binding; assay type: in vitro ADME; conditions: mouse, rat, guinea pig, dog, monkey and human plasma; concentrations up to about 113 μM
OBSERVATION_TYPE: fraction unbound

[[record]]
compound = "C(=C\\[C@H]1CCNC1)/c1cncnc1 [Compound 1]"
value = "> 0.87"


###

assay: pKa; assay type: physicochemical; details: read-out: pKa(1)
OBSERVATION_TYPE: pKa

[[record]]
compound = "C(=C\\[C@H]1CCNC1)/c1cncnc1 [Compound 1]"
value = 1.73


###

assay: Single dose pharmacokinetics, monkey; assay type: in vivo, Cyno monkey; details: cynomolgus, plasma, po, 10 mg/kg orally, read-out: half-life, unchanged parent (converted)
OBSERVATION_TYPE: half-life (h)

[[record]]
chemical_structure = "C(=C\\[C@H]1CCNC1)/c1cncnc1"
readout_unit = "h"
value = 1.9


###

Assay: Single dose pharmacokinetics, monkey
Format: in vivo, Cyno monkey
Details: cynomolgus, plasma, oral, [14C]-Compound 1, 10 mg/kg orally vs 5 mg/kg iv infusion, read-out: Oral bioavailability
Protocol: In a monkey study, [^14C]-Compound 1 was given at 10 mg/kg orally or 5 mg/kg by iv infusion. Oral bioavailability in this study was about 30%.
OBSERVATION_TYPE: bioavailability

[[record]]
chemical_structure = "C(=C\\[C@H]1CCNC1)/c1cncnc1"
value = "~30%"


###

experiment: 7-day pilot intranasal toxicity and toxicokinetic study in rats; details: female, rat, plasma, inhaled or intranasal, 3.6 mg/day, AUC0-t, Female, Day 7, 3.6 mg/day (2%), intranasal TID
OBSERVATION_TYPE: AUC(0-t) (ng·h/mL)

[[record]]
molecule = "C(=C\\[C@H]1CCNC1)/c1cncnc1 [Compound 1]"
observation_type = "AUC(0-t)"
value = 336


###

assay: 13-week repeat-dose oral toxicity in rats; type: in vivo, rat; conditions: male, rat, in vivo, po, 30 mg/kg/day
OBSERVATION_TYPE: Cmax

[[record]]
chemical_structure = "C(=C\\[C@H]1CCNC1)/c1cncnc1"
observation_type = "Cmax"
value = "2570 ng/mL"


###

test: 7-day pilot intranasal toxicity and toxicokinetic study in rats; details: male, rat, plasma, inhaled or intranasal, 3.6 mg/day, AUC0-t, Male, Day 1, 3.6 mg/day (2%), intranasal TID
OBSERVATION_TYPE: AUC(0-t) (ng·h/mL)

[[record]]
molecule = "C(=C\\[C@H]1CCNC1)/c1cncnc1 [Compound 1]"
observation_type = "AUC(0-t)"
value = 829


###

molecular target: human α4β2 (Homo sapiens, UniProt P17787+P43681); test: Receptor function α4β2, Ca++ flux; assay type: cell-based; details: a4b2 HS (high sensitivity), 29° C., Ca++ Flux
Sequence (P43681 29-627 limits assumed): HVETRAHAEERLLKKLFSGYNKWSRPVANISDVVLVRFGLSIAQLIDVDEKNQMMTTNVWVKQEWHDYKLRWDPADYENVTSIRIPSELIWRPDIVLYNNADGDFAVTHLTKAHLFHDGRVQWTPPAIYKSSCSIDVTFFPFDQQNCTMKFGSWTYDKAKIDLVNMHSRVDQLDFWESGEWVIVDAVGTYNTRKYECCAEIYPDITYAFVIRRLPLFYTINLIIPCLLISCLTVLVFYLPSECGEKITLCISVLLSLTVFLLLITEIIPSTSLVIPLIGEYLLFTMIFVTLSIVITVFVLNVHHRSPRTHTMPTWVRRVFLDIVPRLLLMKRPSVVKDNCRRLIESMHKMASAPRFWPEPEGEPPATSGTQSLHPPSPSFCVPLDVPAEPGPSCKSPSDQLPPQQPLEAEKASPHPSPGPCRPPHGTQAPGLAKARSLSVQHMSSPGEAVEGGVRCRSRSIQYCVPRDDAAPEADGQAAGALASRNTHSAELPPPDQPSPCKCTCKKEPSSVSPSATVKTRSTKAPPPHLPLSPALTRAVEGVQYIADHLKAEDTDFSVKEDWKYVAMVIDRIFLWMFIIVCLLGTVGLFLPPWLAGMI
Sequence (P17787 26-502): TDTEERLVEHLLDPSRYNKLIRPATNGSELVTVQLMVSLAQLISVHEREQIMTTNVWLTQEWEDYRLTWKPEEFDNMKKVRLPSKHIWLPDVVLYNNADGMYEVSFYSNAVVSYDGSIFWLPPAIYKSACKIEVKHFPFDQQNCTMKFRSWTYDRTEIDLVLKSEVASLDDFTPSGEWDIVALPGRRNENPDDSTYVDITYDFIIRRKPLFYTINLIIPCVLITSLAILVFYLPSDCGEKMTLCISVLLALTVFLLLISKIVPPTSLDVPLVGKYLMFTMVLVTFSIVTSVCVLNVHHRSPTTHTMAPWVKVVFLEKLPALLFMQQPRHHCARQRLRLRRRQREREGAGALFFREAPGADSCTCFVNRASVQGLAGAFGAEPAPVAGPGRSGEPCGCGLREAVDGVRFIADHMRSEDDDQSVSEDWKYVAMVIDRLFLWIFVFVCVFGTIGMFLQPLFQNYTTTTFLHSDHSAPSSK
pIC50: −log10 of the molar value.
OBSERVATION_TYPE: pIC50

[[record]]
chemical_structure = "C(=C\\[C@H]1CCNC1)/c1cncnc1"
observation_type = "pIC50"
value = 6.37


###

assay: 7-day pilot intranasal toxicity and toxicokinetic study in rats; settings: male, rat, plasma, inhaled or intranasal, 3.6 mg/day, AUC0-t, Male, Day 7, 3.6 mg/day (2%), intranasal TID
OBSERVATION_TYPE: AUC(0-t) (ng·h/mL)

[[record]]
chemical_structure = "C(=C\\[C@H]1CCNC1)/c1cncnc1"
readout_unit = "ng·h/mL"
value = 298


###

experiment: 13-week repeat-dose oral toxicity in Cynomolgus monkeys; format: in vivo, Cynomolgus monkey; settings: male, cynomolgus monkey, plasma, po; males, at the NOAEL (30 mg/kg)
OBSERVATION_TYPE: Cmax (ng/mL)

[[record]]
chemical_structure = "C(=C\\[C@H]1CCNC1)/c1cncnc1"
readout_unit = "ng/mL"
value = 382


###

assay: Single dose pharmacokinetics, monkey; format: in vivo, Cyno monkey; details: cynomolgus, plasma, po, 10 mg/kg orally, read-out: AUCinf, unchanged parent
OBSERVATION_TYPE: AUC(0-inf) (ng·h/mL)

[[record]]
chemical_structure = "C(=C\\[C@H]1CCNC1)/c1cncnc1"
observation_type = "AUC(0-inf)"
value = 969


###

Assay: 2-week and 13-week repeated dose TK studies, monkey
Assay type: in vivo
Conditions: both sexes, cynomolgus, monkey, in vivo; oral 10-100 mg/kg/day, 2-week and 13-week studies
Procedure: In 2-week and 13-week repeated dose TK studies in monkey, animals were dosed orally at 10, 30 or 100 mg/kg/day (2-week study) or at 10, 30 or 60 mg/kg/day (13-week study). […] In the 2-week study, exposure increased roughly proportional to dose from 10 to 30 mg/kg/day on Days 1 and 14 and less than proportionally from 30 to 100 mg/kg/day on Days 1 and 14; emesis in the 100 mg/kg/day dose group, 6/6 animals on Day 1 and 5/6 animals on Day 14, may have contributed to this. […]
OBSERVATION_TYPE: Tmax

[[record]]
molecule = "C(=C\\[C@H]1CCNC1)/c1cncnc1 [Compound 1]"
value = "0.5 to 6 h"


###

assay: 7-day pilot intranasal toxicity and toxicokinetic study in rats; conditions: female, rat, plasma, inhaled or intranasal, 0.9 mg/day, Tmax, Female, Day 1, 0.9 mg/day (0.5%), intranasal TID
OBSERVATION_TYPE: Tmax (h)

[[record]]
molecule = "C(=C\\[C@H]1CCNC1)/c1cncnc1 [Compound 1]"
observation_type = "Tmax"
value = 12.1


###

assay: Single dose pharmacokinetics, rat; type: in vivo, Sprague-Dawley rat; conditions: Sprague-Dawley, plasma; S-D rat, 30 mg/kg [14C]-Compound 1, oral; read-out: t1/2 (converted)
OBSERVATION_TYPE: half-life (h)

[[record]]
chemical_structure = "C(=C\\[C@H]1CCNC1)/c1cncnc1"
value = 1.2


###

test: Single dose pharmacokinetics, rat; type: in vivo, Sprague-Dawley rat; settings: male, Sprague-Dawley, rat, plasma and brain, po; 0.3 or 3 mg/kg orally; read-out: half-life (plasma and brain concentrations) (converted)
OBSERVATION_TYPE: half-life (h)

[[record]]
chemical_structure = "C(=C\\[C@H]1CCNC1)/c1cncnc1"
value = 1.4


###

assay: Single dose pharmacokinetics, rat; type: in vivo, Sprague-Dawley rat; conditions: male, Sprague-Dawley, plasma; S-D rat, 0.3 mg/kg Compound 1, oral; read-out: t1/2 (converted)
OBSERVATION_TYPE: half-life (h)

[[record]]
chemical_structure = "C(=C\\[C@H]1CCNC1)/c1cncnc1"
observation_type = "half-life"
value = 1.4


###

assay: 13-week repeat-dose oral toxicity in rats; assay type: in vivo, rat; conditions: female, rat, in vivo, po, 30 mg/kg/day
OBSERVATION_TYPE: Cmax (ng/mL)

[[record]]
molecule = "C(=C\\[C@H]1CCNC1)/c1cncnc1 [Compound 1]"
value = 3150


###

experiment: 7-day pilot intranasal toxicity and toxicokinetic study in rats; conditions: male, rat, plasma, inhaled or intranasal, 0.9 mg/day, Cmax, Male, Day 1, 0.9 mg/day (0.5%), intranasal TID
OBSERVATION_TYPE: Cmax (ng/mL)

[[record]]
compound = "C(=C\\[C@H]1CCNC1)/c1cncnc1 [Compound 1]"
readout_unit = "ng/mL"
value = 54.2

